Here the recorded TGI is given for each entry.
System: HOP-18 NSCLC
assay_protocol: NCI tumour cell line growth inhibition, 48 h

Some solved entries appear below for comparison.
CCS(CC)(CC)CC1CCCC2=CCC(P(=O)(c3ccccc3)c3ccccc3)CC21 (configuration not stated) | 40.3 µM
CC(=O)OCC1=C(CCC#N)N2C(=O)C(NC(=O)Cc3cccs3)C2S(=O)C1 (configuration not stated) | > 100 µM
CCOC(=O)N1CCN(C=S)CC1 | > 100 µM
Oc1c(C(Nc2cccc3cccnc23)c2ccccc2)ccc2cccnc12 (configuration not stated) | 93.2 µM
CC(C)C1CC[C@@H](C)C[C@@]1(O)CC(N)=O (some centres not stated) | > 100 µM

Record C[C@]12C=CC(=O)C=C1CC[C@@H]1[C@@H]2CC[C@]2(C)OC(=O)CC[C@@H]12 , field TGI: 232 µM

Record Cc1ccc2nc(NC(=O)C(=O)C(C#N)c3nc4ccccc4s3)sc2c1 (configuration not stated) , field TGI: > 100 µM

Record Oc1ccccc1/C=C/c1csnn1 , field TGI: > 100 µM

Record CCN(CC)c1c(C(=O)/C=C/c2ccc(OC)cc2)c(-c2ccccc2)nn(C)c1=O , field TGI: 51.7 µM

Record CN1CCc2[nH]c3ccccc3c2C1 , field TGI: > 100 µM

Record NC(=O)N/N=C(\CC1OC(=O)c2ccccc21)c1ccco1 (configuration not stated) , field TGI: > 100 µM

Record Cc1cc(=O)n(-c2ccccc2C)c(C)n1 , field TGI: > 100 µM

###

Here the recorded TGI is given for each entry.
Test system: OVCAR-5 ovarian
assay_protocol: NCI tumour cell line growth inhibition, 48 h
Report the figure in µM without appending any unit label.

Some solved entries appear below for comparison.
CC(C)(C)n1cc(-c2ccnc(NCCCNS(=O)(=O)c3ccc(C(F)(F)F)cc3)c2)c(-c2cccc(O)c2)n1 | 3.4
CN(CCCn1c2c(c3ccccc3c1=O)C(=O)c1ccccc1-2)CCCn1c2c(c3ccccc3c1=O)C(=O)c1ccccc1-2 | 3.59
CCC[CH2][Sn]1([CH2]CCC)[O]C(=O)c2cccnc2[O]1 | 24.2

Record CCOc1cc(NC(C)=O)ccc1C(=O)NN1C(=O)C(Cl)C1c1ccccc1 (centres undefined) , field TGI: 31.4

###

Test system: OVCAR-3 ovarian
assay_protocol: NCI tumour cell line growth inhibition, 48 h
Here the recorded TGI is given for each entry.

Record CCCCNc1nc(C#N)c(N)s1 , field TGI: > 100 µM

Record [N-]=[N+]=Nc1ccccc1C(=O)N1C(=O)c2ccccc2C(=O)N(C(=O)c2ccccc2N=[N+]=[N-])c2ccccc21 , field TGI: > 100 µM

Record COc1cc2c(c(O)c1OC)-c1c(cc(OC)c(OC)c1OC)CC(C)C(C)C2 (centres undefined) , field TGI: > 100 µM

Record Cc1cc2c(cc1-c1cc3c(cc1C)C(C(C)C)=C(O)C(=O)/C3=C\Nc1c3ccccc3nc3ccccc13)/C(=C/Nc1c3ccccc3nc3ccccc13)C(=O)C(O)=C2C(C)C , field TGI: 14.5 µM

###

System: T-47D breast
assay_protocol: NCI tumour cell line growth inhibition, 48 h
observable: TGI (µM)
Report the figure in µM without appending any unit label.

C[C@H]1[C@H](C)CC[C@]2(CO)CC[C@]3(C)C(=CC[C@@H]4[C@@]5(C)CCCNC(C)(C)[C@@H]5CC[C@]43C)[C@H]12 | 4.03
C=CCNC1=C2C[C@@H](C)C[C@@H](OC)[C@H](OC(=O)CCN)[C@H](C)/C=C(\C)[C@@H](OC(N)=O)[C@H](OC)/C=C\C=C(/C)C(=O)NC(=CC1=O)C2=O | 15.5
CC(C)N(Cc1ccccc1)c1c(S)ssc1=S | 18.6

Item: Cc1csc2[n+]1C(=O)/C(=C\c1ccc([N+](=O)[O-])cc1)S2 | System: T-47D breast | TGI: 65.5

Item: NC(N)=N/N=C/c1c(-c2ccc(Cl)cc2)nc2sccn12 | System: T-47D breast | TGI: 3.22

Just for reference, PubChem BioAssay (NCI) is where these values come from.
